Entries and their measured Enzyme Activity Endpoint Assay (purified): scIgG follow.
- target.of.assay: pooled human IgG (human IgG1, 2, 3 and 4)
Reply numerically in ng/µL, unit not repeated.

>>> quantitative_readout("PRT-439 (protein) MSQTEDSESLQRLRDIEDFQAEKKKQNVVYTKWLDGVDVKDHDFRKIVDGNIAYYATPLLNGRGFYDINKDFNRDSDKCAAAVAANMFHYWLDRNRDNVDRFLRQNPEKHGIIELPDGQLKLSDFLNTYESDDGYRDKSKLFDFISNNFNGPVWTDKLLDNYINGYAYNYKYGRLIEDPTKNTSKINFFKEVFNEKILTNNHSIRNQNEFSVLLSEALYTGKAIGLSYGPAGLRHSLGHIISVWGADLDADGNVVAIYVTDSDDKKLTIGDERVGLKRYKISTDDEGRLRLTAYEETHNTGGQIRGLWTLDTGKQAWADYFDKTEQTGTDQAEQ")
528
>>> quantitative_readout("PRT-621 (protein) MQITSVWTKGVTPLTPEQFRYNNEDVIHAPYLAHQGWYDITKAFDGKDNLLCGAATAGNMLHWWFDQNKTEIEAYLSKHPEKQKIIFNNQELFDLKAAIDTKDSQTNSQLFNYFRDKAFPNLSARQLGVMPDLVLDMFINGYYLNVFKTQSTDVNRPYQDKDKRGGIFDAVFTRGDQTTLLTARHDLKNKTLNEISQIIKQELSSGRALALSHTYANVSISHVINLWGADFNAEGNLEAIYVTDSDANASIGMKKYFVGINAHGHVAISAKKIEGENIGAQVLGLFTLSSGKDIWQKLSLEHHHHHH")
0
>>> quantitative_readout("PRT-428 (protein) MTITSVWTKGVTPPTPEDFRYNNEDVLHAPYVANQGWYDITKTFDGKDNLLCGAATAGNMLHWWFDQNKEEIERYLKKHPEKQKIIFNNQELFDVKAAIDTKDSQTNSKLFNYFRDKAFPNLSARQLGVMPDLVLDMFINGYYLNLGKTQSTDVNRPYQDKDKRGGIFDAVFTRGDQTTLLTARHDLKNKGLNEISDLIKQELTEGKALALSHTYANVRINHVINLWGADFDAEGNLIAIYVTDSDTNASIGMKKYFVGVNANGKVAISAKKIEGDNIGAQVLGLFTLSTGQDIWQKLS")
119
>>> quantitative_readout("PRT-625 (protein) MQITSVWTKGVTPLTPEQFRYNNEDVIHAPYLAHQGWYDITKAFDGKDNLLCGAATAGNMLHWWFDQNKTEIEAYLSKHPEKQKIIFNNQELFDLKAAIDTKDSQTNSQLFNYFRDKAFPNLSARQLGVMPDLVLDMFINGYYLNVFKTQSTDVNRPEDDKDKRGGIFDHVFTRGDQSTLLTARHDLKNKGLNDISTIIKQELTEGRALALSHTYANVSISHVINLWGADFNAEGNLEAIYVTDSDANASIGMKKYFVGINAHGHVAISAKKIEGENIGAQVLGLFTLSSGKDIWQKLSLEHHHHHH")
531

Asked: Give Enzyme Activity Endpoint Assay (purified): scIgG for PRT-430 (protein) MSQTEDSESLQRLRDIEDFQAEKKKQNVVYTKWLDGVDVKDHDFRKIVDGNSAYYATPLLNGRGFYDINKDFNRDSDKCAAAVAANMFHYWLDRNRDNVDRFLRQNPEKHGIIELPDGQLKLSDFLNTYESDDGYRDKSKLFDFISNNFNGPVWTDKLLDNYINGYAYNYKYGRTIEDPTKNTSKINFFKEVFNEKILTNNHSIRNQNEFSVLLSEALYTGKAIGLSYGPAGLRHSLGHIISVWGADLDADGNVVAIYVTDSDDKKLTIGDERVGLKRYKISTDDEGRLRLTAYEETHNTGGQIRGLWTLDTGKQAWADYFDKTEQTGTDQAEQ
Given back: 324

Asked: Give Enzyme Activity Endpoint Assay (purified): scIgG for PRT-438 (protein) MSQTEDSESLQRLRDIEDFQAEKKKQNVVYTKWLDGVDVKDHDFRKIVDGNIAYYATPLLNGRGLYDINKDFNRDSDKCAAAVAANMFHYWLDRNRDNVDRFLRQNPEKHGIIELPDGQLKLSDFLNTYESDDGYRDKSKLFDFISNNFNGPVWTDKLLDNYINGYAYNYKYGRTIEDPTKNTSKINFFKEVFNEKILTNNHSIRNQNEFSVLLSEALYTGKAIGLSYGPAGLRHSLGHIISVWGADLDADGNVVAIYVTDSDDKKLTIGDERVGLKRYKISTDDEGRLRLTAYEETHNTGGQIRGLWTLDTGKQAWADYFDKTEQTGTDQAEQ
Given back: 249

Asked: Give Enzyme Activity Endpoint Assay (purified): scIgG for PRT-432 (protein) MSQTEDSESLQRLRDIEDFQAEKKKQNVVYTKWLDGVDVKDHDFRKIVDGNIAYYATPLLNGRGFYDINKDFNRDSDKCAAAVAANMFHYWLDRNRDNVDRFLRQNPEKHGIIELPDGQLKLSDFLNTYESDDGYRDKSKLFDFISNNFNGPVWTDKLLDNYINGYAYNSKYGRTIEDPTKNTSKINFFKEVFNEKILTNNHSIRNQNEFSVLLSEALYTGKAIGLSYGPAGLRHSLGHIISVWGADLDADGNVVAIYVTDSDDKKLTIGDERVGLKRYKISTDDEGRLRLTAYEETHNTGGQIRGLWTLDTGKQAWADYFDKTEQTGTDQAEQ
Given back: 385

Asked: Give Enzyme Activity Endpoint Assay (purified): scIgG for PRT-384 (protein) MVTSVWTKGVTPPTNFTYGEDVLHAPYVANQGWYDITKTFNGKDDLLCGAATAGNMLHWWFDQNKEQIENYLKKHPEKQKINFNGEQMFDVKEAIDTKDSQLDSKLFEYFKEKAFPNLSTKHLGVFPDHVIDMFINGYRLSLTNHGPTPVKRGSKDPRGGIFDAVFTRGDQSKLLTNRHDFKEKTLKEISDLIKQELTEGKALGISHTYANVRINHVINLWGADFDAEGNLEAIYVTDSDSNASIGMKKYFVGVNSNGKVAISAKEIEEDNIGAQVLGLFTLSTGQDIWNQTN
Given back: 0
